System: PFSK-1 (malignant primitive neuroectodermal tumour)
Assay: In vitro cytotoxicity, SRB assay, PFSK-1
Type: cell-based
Conditions: 72 h with compound, SRB; n/a = non-active compound; read-out: PFSK-1 IC50
OBSERVED PROPERTY: pIC50
# log scale: pIC50 equals minus log10 of the concentration in mol/L

Q: Returns the measured pIC50 for the input molecule. Input: N.N.[Cl][Pt][Cl] [Cisplatin, cisplatin, reference compound]
Result: 5.82

###

Test system: A2780Cis (cisplatin-resistant human ovarian cancer)
Test: In vitro cytotoxicity, SRB assay, A2780Cis
Type: cell-based
OBSERVED PROPERTY: SI A2780Cis

Q: What measured SI A2780Cis is associated with C#CC(C)(C)OC(=O)N[C@@H]1C=C[C@]2(O[C@H]([C@@H](CC)C(=O)[C@@H](C)[C@@H](O)[C@H](C)[C@@H]3O[C@@H]([C@@H](CC)C(=O)O)CC[C@@H]3C)[C@@H](C)C[C@H]2C)O[C@@]12CC[C@@](C)([C@H]1CC[C@](O)(CC)[C@H](C)O1)O2 [FLC-00552-1•Na] on A2780Cis (cisplatin-resistant human ovarian cancer)?
Result: 46.7

Q: How about CC[C@@H](C(=O)[C@@H](C)[C@@H](O)[C@H](C)[C@@H]1O[C@@H]([C@@H](CC)C(=O)O)CC[C@@H]1C)[C@H]1O[C@]2(C=C[C@@H](NC(=O)OCc3cc(Cl)cc(Cl)c3)[C@]3(CC[C@@](C)([C@H]4CC[C@](O)(CC)[C@H](C)O4)O3)O2)[C@H](C)C[C@@H]1C [FLC-00485-1•Na] ?
Result: 23.0

Q: Another: CC[C@@H](C(=O)[C@@H](C)[C@@H](O)[C@H](C)[C@@H]1O[C@@H]([C@@H](CC)C(=O)O)CC[C@@H]1C)[C@H]1O[C@]2(C=C[C@@H](NC(=O)OCC(F)F)[C@]3(CC[C@@](C)([C@H]4CC[C@](O)(CC)[C@H](C)O4)O3)O2)[C@H](C)C[C@@H]1C [FLC-00446-1•Na]
Result: 294.5
